The values you see were collected from patent US10508120B2.

measurement target: human TYK2 (JH2domain-pseudokinase) (Homo sapiens (Human))
assay method text: TYK2 JH2 Domain Binding Assay (KINOMEscan)
Measured Kd values are reported for all entries that follow.

CNc1cc(Nc2cc(F)cn(C3CCCOC3)c2=O)nc2c(C(=O)NC3CC3)cnn12 (centres unmarked) = 0.2 to 1 nM
CCOc1ccc(-n2cccc(Nc3cc(NC)n4ncc(C(N)=O)c4n3)c2=O)nn1 = 1 to 10 nM
CNc1cc(-c2nn(CCN3CCCCC3)c3ncccc23)nc2c(C(=O)NC3CC3)cnn12 = 1 to 10 nM
CNc1cc(Nc2cccn([C@H]3CC[C@](C)(OC)CC3)c2=O)nc2c(C(=O)N[C@@H]3CC[C@H]3O)cnn12 [I-962] = < 0.2 nM
CNc1cc(Nc2cccn(-c3ccn(C4CC4)n3)c2=O)nc2c(C(=O)NC3CC3)cnn12 = < 0.2 nM

Would you mind telling me what Kd value was observed for CNc1cc(Nc2cccnc2OC)nc2c(C(=O)NCC(C)CO)cnn12 (centres unmarked) ?
< 0.2 nM

Would you mind telling me what Kd value was observed for `CNc1cc(Nc2cccn(-c3cccnc3C)c2=O)nc2c(C(=O)N[C@@H]3C[C@@H]3F)cnn12` ?
0.2 to 1 nM

Would you mind telling me what Kd value was observed for `CNc1cc(Nc2cc(Cl)cn(-c3ccc(C4CC4)nn3)c2=O)nc2c(C(=O)N[C@H]3C[C@H]3F)cnn12` ?
< 0.2 nM

Would you mind telling me what Kd value was observed for CNc1cc(-c2cn([C@@H]3CCCOC3)c3ncccc23)nc2c(C(=O)N[C@H]3CC[C@@H]3OC)cnn12 [I-1364] ?
0.2 to 1 nM

Would you mind telling me what Kd value was observed for `CNc1cc(-c2cn([C@H]3CCCOC3)c3ncccc23)nc2c(C(N)=O)cnn12` ?
< 0.2 nM

Would you mind telling me what Kd value was observed for `CNc1cc(Nc2cc(C)nc(N3CC[C@@H](OC)C3)c2)nc2c(C(N)=O)cnn12` ?
1 to 10 nM

###

Measured pIC50 values are reported for all entries that follow.
measurement target: Tyk2/JAK2 (heterodimeric complex) (Homo sapiens (Human), UniProt P29597)
Sequence (P29597 whole entry, other chains not shown): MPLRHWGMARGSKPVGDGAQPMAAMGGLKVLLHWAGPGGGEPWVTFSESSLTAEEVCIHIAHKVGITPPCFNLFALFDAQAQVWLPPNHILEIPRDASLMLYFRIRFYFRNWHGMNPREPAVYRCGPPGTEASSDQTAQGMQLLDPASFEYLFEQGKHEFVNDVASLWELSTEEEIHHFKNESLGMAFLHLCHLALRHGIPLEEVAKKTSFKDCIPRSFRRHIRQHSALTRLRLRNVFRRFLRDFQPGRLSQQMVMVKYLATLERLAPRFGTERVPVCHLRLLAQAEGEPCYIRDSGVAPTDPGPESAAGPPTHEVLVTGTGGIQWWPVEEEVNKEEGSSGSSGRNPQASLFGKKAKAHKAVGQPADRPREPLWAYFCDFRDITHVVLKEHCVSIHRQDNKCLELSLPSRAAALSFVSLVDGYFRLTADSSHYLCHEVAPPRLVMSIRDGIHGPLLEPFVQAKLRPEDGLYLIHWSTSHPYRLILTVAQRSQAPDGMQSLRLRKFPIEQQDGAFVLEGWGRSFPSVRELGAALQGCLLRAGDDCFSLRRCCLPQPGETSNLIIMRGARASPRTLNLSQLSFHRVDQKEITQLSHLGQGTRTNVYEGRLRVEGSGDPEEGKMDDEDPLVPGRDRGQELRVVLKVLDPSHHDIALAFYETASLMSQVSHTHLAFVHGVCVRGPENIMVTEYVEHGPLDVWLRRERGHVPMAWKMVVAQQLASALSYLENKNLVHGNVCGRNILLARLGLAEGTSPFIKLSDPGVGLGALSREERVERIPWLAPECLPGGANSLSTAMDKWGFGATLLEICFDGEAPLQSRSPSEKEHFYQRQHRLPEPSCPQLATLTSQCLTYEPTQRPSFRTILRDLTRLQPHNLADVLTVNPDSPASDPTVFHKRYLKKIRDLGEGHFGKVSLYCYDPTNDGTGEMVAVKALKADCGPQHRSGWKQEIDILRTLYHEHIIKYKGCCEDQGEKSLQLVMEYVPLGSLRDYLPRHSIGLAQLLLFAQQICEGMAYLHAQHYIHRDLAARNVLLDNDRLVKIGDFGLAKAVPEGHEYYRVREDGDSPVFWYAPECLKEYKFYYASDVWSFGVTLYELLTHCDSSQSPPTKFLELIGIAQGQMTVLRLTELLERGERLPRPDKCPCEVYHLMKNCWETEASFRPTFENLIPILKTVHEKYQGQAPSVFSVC
assay method text: IL-12 Induced pSTAT4 in Human PBMC
assay conditions: 1.7 ng/mL IL-12
pIC50: −log10 of the molar value.

CNc1cc(Nc2cccn(-c3ncc(C)s3)c2=O)nc2c(C(=O)N[C@H]3C[C@H]3F)cnn12 [I-262] = > 7.00

Would you mind telling me what pIC50 value was observed for CNc1cc(Nc2cccn(-c3cn(C)nc3F)c2=O)nc2c(C(=O)NC3CC3)cnn12 [I-606] ?
6.30 to 7.00

Would you mind telling me what pIC50 value was observed for CNc1cc(Nc2cccn(-c3nc(C)c(C)s3)c2=O)nc2c(C(=O)N[C@H]3C[C@H]3F)cnn12 [I-292] ?
> 7.00

Would you mind telling me what pIC50 value was observed for CNc1cc(Nc2cc(F)cn(-c3ccn(C)n3)c2=O)nc2c(C(=O)N[C@H]3C[C@H]3F)cnn12 [I-379] ?
> 7.00

###

Measured Kd values are reported for all entries that follow.
measurement target: human TYK2 (JH2domain-pseudokinase) (Homo sapiens (Human))
assay method text: TYK2 JH2 Domain Binding Assay (KINOMEscan)

Would you mind telling me what Kd value was observed for `CNc1cc(-c2cn([C@@H]3CCC[C@H]3OC)c3ncccc23)nc2c(C(=O)N[C@H]3CC[C@H]3O)cnn12` ?
0.2 to 1 nM

Would you mind telling me what Kd value was observed for [2H]C([2H])([2H])Oc1ncccc1Nc1cc(NC)n2ncc(C(=O)N[C@H]3CC[C@H]3O)c2n1 (stereo in doubt) ?
< 0.2 nM

Would you mind telling me what Kd value was observed for `CNc1cc(-c2cn(CCN3CCOCC3)c3ncccc23)nc2c(C(=O)NCC3(CO)CC3)cnn12` ?
0.2 to 1 nM

Would you mind telling me what Kd value was observed for `CNc1cc(Nc2cccc(-c3cn(C)nc3F)n2)nc2c(C(=O)N[C@@H]3C[C@@H]3F)cnn12` ?
< 0.2 nM

###

Measured pIC50 values are reported for all entries that follow.
measurement target: Tyk2/JAK2 (heterodimeric complex) (Homo sapiens (Human), UniProt P29597)
assay method text: IL-12 Induced pSTAT4 in Human PBMC
Assay type: cell-based
assay conditions: 1.7 ng/mL IL-12
Text: The IL-12 Induced pSTAT4 assay evaluates the inhibition of IL-12 induced STAT4 phophorylation mediated by Tyk2/JAK2 (heterodimeric complex).
pIC50: −log10 of the molar value.

CNc1cc(Nc2cccc(C3CCCOC3)n2)nc2c(C(=O)N[C@@H]3C[C@@H]3F)cnn12 (stereo partly shown) = > 7.00
CNc1cc(-c2cn(C(C)C)c3ncccc23)nc2c(C(=O)NC3CC3)cnn12 = > 7.00
CNc1cc(Nc2cccn(-c3ncco3)c2=O)nc2c(C(=O)N[C@H]3C[C@H]3F)cnn12 = > 7.00
CNc1cc(Nc2cccn([C@H]3CC[C@H](OC)CC3)c2=O)nc2c(C(=O)NC3CC3)cnn12 = > 7.00
CNc1cc(Nc2cccn([C@H]3CCCC[C@H]3OC)c2=O)nc2c(C(=O)N[C@H]3CC[C@@H]3OC)cnn12 = > 7.00
CNc1cc(Nc2cccn(CCOC)c2=O)nc2c(C(=O)NC3CCC3)cnn12 = > 7.00
CNc1cc(Nc2cc(F)cn(-c3ccccn3)c2=O)nc2c(C(=O)NC3CCC3)cnn12 = > 7.00
CNc1cc(Nc2cccnc2OCCOC)nc2c(C(=O)NC3CCC3)cnn12 = > 7.00
CNc1cc(Nc2cccn([C@H]3CCC[C@@H](OC)C3)c2=O)nc2c(C(=O)NCC(C)(C)CO)cnn12 = > 7.00
CNc1cc(-c2cn(CCN3CCOCC3)c3ncccc23)nc2c(C(=O)N[C@H]3CC[C@@H]3OC)cnn12 = > 7.00

Would you mind telling me what pIC50 value was observed for `[2H]C([2H])([2H])Oc1ncc(C)cc1Nc1cc(NC)n2ncc(C(=O)N[C@H]3C[C@H]3F)c2n1` ?
> 7.00

Would you mind telling me what pIC50 value was observed for `CNc1cc(Nc2cccn(-c3cc(C)on3)c2=O)nc2c(C(=O)NC3CCC3)cnn12` ?
> 7.00

Would you mind telling me what pIC50 value was observed for `CNc1cc(Nc2cccn(-c3cc(C)n(C)n3)c2=O)nc2c(C(=O)N[C@H]3C[C@H]3F)cnn12` ?
> 7.00

Would you mind telling me what pIC50 value was observed for `CNc1cc(Nc2cc(C)cnc2OC2CC2)nc2c(C(=O)NC3CC3)cnn12` ?
6.30 to 7.00

Would you mind telling me what pIC50 value was observed for `CNc1cc(Nc2cccnc2OC(F)F)nc2c(C(=O)NC3CC3)cnn12` ?
> 7.00

Would you mind telling me what pIC50 value was observed for `[2H]C([2H])([2H])Oc1ncccc1Nc1cc(NC)n2ncc(C(=O)NC3CC4(COC4)C3)c2n1` ?
6.30 to 7.00

Would you mind telling me what pIC50 value was observed for CNc1cc(Nc2cccn(-c3ccnc(C)n3)c2=O)nc2c(C(=O)N[C@@H]3C[C@@H]3F)cnn12 (stereo in doubt) ?
> 7.00

Would you mind telling me what pIC50 value was observed for COc1ncccc1Nc1cc(NCCCN2CCOCC2)n2ncc(C(=O)N[C@@H]3C[C@@H]3F)c2n1 (stereo in doubt) ?
6.30 to 7.00

###

measurement target: human TYK2 (JH2domain-pseudokinase) (Homo sapiens (Human), UniProt P29597)
Sequence (P29597 556-888): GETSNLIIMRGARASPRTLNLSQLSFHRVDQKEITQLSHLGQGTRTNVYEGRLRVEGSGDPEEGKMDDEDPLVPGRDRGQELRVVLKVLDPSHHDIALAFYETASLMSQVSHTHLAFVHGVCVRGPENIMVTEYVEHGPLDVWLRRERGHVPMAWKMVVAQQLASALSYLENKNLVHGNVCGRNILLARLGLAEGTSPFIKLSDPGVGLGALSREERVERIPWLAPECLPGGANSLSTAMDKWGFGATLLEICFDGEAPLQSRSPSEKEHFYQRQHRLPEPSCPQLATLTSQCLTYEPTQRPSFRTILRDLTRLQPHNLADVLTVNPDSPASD
assay method text: TYK2 JH2 Domain Binding Assay (KINOMEscan)
measure: Kd

# annotated cases, reported Kd shown
CNc1cc(-c2nn([C@@H]3CCOC3)c3ncccc23)nc2c(C(=O)N[C@@H]3C[C@@H]3F)cnn12 [I-517] = 0.2 to 1 nM
[2H]C([2H])([2H])Oc1ncc(F)cc1Nc1cc(NC)n2ncc(C(=O)N[C@H]3C[C@H]3F)c2n1 [I-289] = < 0.2 nM

I'm curious: which Kd was measured for CNc1cc(Nc2cccn3ccnc23)nc2c(C(=O)N[C@H]3COC[C@H]3O)cnn12 [I-1262] tested on human TYK2 (JH2domain-pseudokinase) (Homo sapiens (Human), UniProt P29597)?
1 to 10 nM

###

Measured IC50 values are reported for all entries that follow.
measurement target: JAK2/JAK2 homdimeric complex (Homo sapiens (Human), UniProt O60674)
Sequence (O60674 whole entry): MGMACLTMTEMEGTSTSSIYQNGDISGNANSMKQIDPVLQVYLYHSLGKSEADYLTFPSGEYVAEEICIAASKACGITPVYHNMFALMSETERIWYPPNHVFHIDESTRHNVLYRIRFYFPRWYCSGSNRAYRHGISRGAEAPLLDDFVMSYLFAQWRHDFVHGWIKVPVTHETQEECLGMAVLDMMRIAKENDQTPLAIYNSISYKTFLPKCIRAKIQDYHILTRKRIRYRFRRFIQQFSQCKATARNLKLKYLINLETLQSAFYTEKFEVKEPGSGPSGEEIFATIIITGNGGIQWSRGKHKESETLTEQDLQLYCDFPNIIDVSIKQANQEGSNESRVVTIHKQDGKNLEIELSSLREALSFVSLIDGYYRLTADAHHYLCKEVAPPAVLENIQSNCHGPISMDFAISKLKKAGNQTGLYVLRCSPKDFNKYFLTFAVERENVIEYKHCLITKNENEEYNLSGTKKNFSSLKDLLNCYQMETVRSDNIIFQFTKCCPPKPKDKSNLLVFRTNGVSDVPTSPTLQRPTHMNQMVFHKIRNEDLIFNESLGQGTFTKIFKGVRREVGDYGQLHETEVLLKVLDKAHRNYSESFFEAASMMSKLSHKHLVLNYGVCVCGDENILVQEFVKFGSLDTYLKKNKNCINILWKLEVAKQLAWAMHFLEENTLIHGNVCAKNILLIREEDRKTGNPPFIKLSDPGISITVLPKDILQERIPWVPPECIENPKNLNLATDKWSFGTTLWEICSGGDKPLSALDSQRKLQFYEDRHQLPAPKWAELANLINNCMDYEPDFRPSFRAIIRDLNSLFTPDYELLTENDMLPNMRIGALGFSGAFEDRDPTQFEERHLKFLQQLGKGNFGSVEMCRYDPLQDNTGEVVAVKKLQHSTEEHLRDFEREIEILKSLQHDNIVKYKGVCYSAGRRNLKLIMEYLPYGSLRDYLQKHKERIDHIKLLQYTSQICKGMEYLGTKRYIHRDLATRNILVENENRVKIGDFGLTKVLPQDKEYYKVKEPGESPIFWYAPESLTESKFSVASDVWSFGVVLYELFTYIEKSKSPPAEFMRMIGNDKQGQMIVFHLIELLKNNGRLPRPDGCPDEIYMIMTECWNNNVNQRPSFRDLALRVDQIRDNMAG
Sequence (P32927 17-897 partner): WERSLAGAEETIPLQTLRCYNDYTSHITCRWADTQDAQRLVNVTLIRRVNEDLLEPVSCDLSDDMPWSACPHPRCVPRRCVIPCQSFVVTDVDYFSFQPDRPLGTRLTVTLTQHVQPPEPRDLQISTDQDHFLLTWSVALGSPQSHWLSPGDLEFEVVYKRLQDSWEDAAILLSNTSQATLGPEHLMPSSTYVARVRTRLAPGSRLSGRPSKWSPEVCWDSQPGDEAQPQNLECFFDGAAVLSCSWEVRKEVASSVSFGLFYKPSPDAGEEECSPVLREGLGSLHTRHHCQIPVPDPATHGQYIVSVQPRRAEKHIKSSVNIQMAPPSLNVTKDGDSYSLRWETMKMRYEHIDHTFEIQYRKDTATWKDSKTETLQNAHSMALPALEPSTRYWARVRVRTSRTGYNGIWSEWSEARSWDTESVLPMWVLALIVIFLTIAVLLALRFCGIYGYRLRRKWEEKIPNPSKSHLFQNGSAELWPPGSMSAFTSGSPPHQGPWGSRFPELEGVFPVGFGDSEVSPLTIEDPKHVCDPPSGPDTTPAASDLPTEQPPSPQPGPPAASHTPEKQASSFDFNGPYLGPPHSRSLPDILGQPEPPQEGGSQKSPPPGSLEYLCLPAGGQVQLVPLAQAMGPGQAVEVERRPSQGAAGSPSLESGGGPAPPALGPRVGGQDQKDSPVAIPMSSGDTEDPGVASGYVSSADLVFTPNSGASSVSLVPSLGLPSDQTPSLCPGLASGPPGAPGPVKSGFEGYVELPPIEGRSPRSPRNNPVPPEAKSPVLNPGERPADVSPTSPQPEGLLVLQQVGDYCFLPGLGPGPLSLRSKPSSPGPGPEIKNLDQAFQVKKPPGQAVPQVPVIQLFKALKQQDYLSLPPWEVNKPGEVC
assay method text: GM-CSF Induced pSTAT5 in Human PBMC
assay conditions: GM-CSF 5 ng/mL for 20 minutes, pSTAT5 by MSD, read-out: PBMC_GMCSF_pSTAT5 IC50

Would you mind telling me what IC50 value was observed for `CCn1cc(Cl)cc(Nc2cc(NC)n3ncc(C(N)=O)c3n2)c1=O` ?
> 0.3 µM

###

measurement target: JAK2/JAK2 homdimeric complex (Homo sapiens (Human), UniProt O60674)
assay method text: GM-CSF Induced pSTAT5 in Human PBMC
assay conditions: GM-CSF 5 ng/mL for 20 minutes, pSTAT5 by MSD, read-out: PBMC_GMCSF_pSTAT5 IC50
Measured IC50 values are reported for all entries that follow.

# annotated cases, reported IC50 shown
CNc1cc(Nc2cccc3ocnc23)nc2c(C(=O)N[C@H]3C[C@H]3F)cnn12 [I-592] = > 12.5 µM
CNc1cc(Nc2cccnc2OC(F)F)nc2c(C(=O)NC3CC3)cnn12 [I-154] = > 12.5 µM
[2H]C([2H])([2H])Oc1ncccc1Nc1cc(NC)n2ncc(C(=O)N[C@H]3CC[C@@H]3O)c2n1 [I-411] = > 50 µM
CNc1cc(Nc2cccn(C3CCN(CCF)CC3)c2=O)nc2c(C(=O)N[C@H]3C[C@H]3F)cnn12 [I-570] = > 50 µM
CNc1cc(Nc2cccn([C@H]3CC[C@@](C)(OC)CC3)c2=O)nc2c(C(=O)N[C@H]3C[C@H]3F)cnn12 [I-360] = > 50 µM
CNc1cc(Nc2cc(F)cn(-c3cc(C)n(C)n3)c2=O)nc2c(C(=O)NC3CC3)cnn12 [I-384] = > 0.3 µM
CNc1cc(Nc2cccn([C@H]3CCCC[C@H]3O)c2=O)nc2c(C(=O)NC3CC3)cnn12 [I-878] = > 50 µM
CNc1cc(Nc2cccn(-c3ccn(C4CC4)n3)c2=O)nc2c(C(=O)N[C@@H]3C[C@@H]3F)cnn12 (stereo in doubt) [I-106] = > 12.5 µM

// switching to the query molecule
Would you mind telling me what IC50 value was observed for CNc1cc(Nc2cccn(-c3cnn(C)c3F)c2=O)nc2c(C(=O)N[C@H]3CC[C@@H]3OC)cnn12 [I-1066] ?
> 50 µM
